Origin of measurements: ChEMBL document CHEMBL1143225

System: Oocyte
procedure details: Activity at rat GABAA alpha-1-beta-2-gamma-2L receptor expressed in Xenopus lavies oocytes assessed as ratio of effect on current at 0.1 uM drug to absence of compound by electrophysiology method
Type: cell-based
Known Ratio of a selection of molecules
Write the number on its own, no unit after it.

>  <smiles data>
C[C@]12C[C@H]3CC[C@@H]4C[C@@H](O)CC[C@H]4[C@@H]3C[C@@H]1CCC2=O

>  <Ratio>
0.92

$$$$
>  <smiles data>
C[C@]12C[C@H]3C[C@H]4CC[C@@H](O)C[C@@H]4C[C@@H]3C[C@@H]1CCC2=O

>  <Ratio>
1.1

$$$$

// switching to the query molecule
INPUT: Fill blank: measured Ratio of the molecule "C[C@]12CC[C@@H](O)C[C@@H]1CC[C@@H]1[C@@H]2CC[C@@]2(C)[C@H]1CC[C@@]21CO1" is ____.
OUTPUT: 3.11
